Overview of recorded PAR-2 β-arrestin cell assay IC50, 1 µM SLIGKV for various binders
TARGET_ENTITY: T1, human PAR-2 (human, UniProt P55085 26-397)
T1 sequence: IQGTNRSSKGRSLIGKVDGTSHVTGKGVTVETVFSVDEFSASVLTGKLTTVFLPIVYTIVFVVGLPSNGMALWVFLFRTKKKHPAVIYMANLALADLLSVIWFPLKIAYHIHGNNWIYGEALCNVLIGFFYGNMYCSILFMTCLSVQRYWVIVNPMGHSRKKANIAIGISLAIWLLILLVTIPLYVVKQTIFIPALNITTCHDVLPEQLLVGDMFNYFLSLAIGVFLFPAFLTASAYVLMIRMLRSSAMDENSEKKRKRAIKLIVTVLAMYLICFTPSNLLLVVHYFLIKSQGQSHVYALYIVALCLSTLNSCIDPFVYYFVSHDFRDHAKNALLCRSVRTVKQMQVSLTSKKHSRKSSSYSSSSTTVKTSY
EXPERIMENTAL_PROTOCOL: cell-based or functional assay
Express it in nM; write the number only.

Before answering, review these 2 worked examples.
| BINDER | OBSERVED_RESULT |
| --- | --- |
| Ab309 (antibody, human IgG4, V domains shown) VH: QVQLKESGPGLVQPSQTLSLTCTVSGFSLNSYGVIWARQPPGKGLDWMGVIWGNGNTYYNSDLKSRLSISRDTSKSQVFLKMNNLQAEDTALYFCARWRGYKDYPFDYWGQGVMVTVSS VL: DIQMTQSPSFLSASVGDRVTFNCKASQNIYKYLDWYQQKLGEAPKLLIYNTNSLHTGIPSRFSGSGFGTDFTLTISSLQPEDVATYFCLQHNSGWTFGGGTKLELR | 4.4 |
| 309-11e (antibody, human IgG4 S228P, kappa, V domains shown) VH: QVQLQESGPGLVKPSETLSLTCTVSGFSLNSYGVIWIRQPPGKGLEWIGVIWGNGNTYYNPSLKSRVTISVDTSKNQFSLKLSSVTAADTAVYYCARWRGYKDYPFDYWGQGTLVTVSS VL: EIVLTQSPATLSLSPGERATLSCKASQNIYKYLDWYQQKPGQAPRLLIYNTNSLHTGIPARFSGSGSGRDFTLTISSLEPEDFAVYYCLQHNSGWTFGGGTKVEIKR | 6.1 |

Input: Requested field: PAR-2 β-arrestin cell assay IC50, 1 µM SLIGKV. Item: 309-6i (antibody, human IgG4 S228P, kappa, V domains shown) VH: EVQLVESGGGLVQPGGSLRLSCAASGFSLNSYGVIWVRQAPGKGLEWVSVIWGNGNTYYNDSVKGRFTISRDNSKNTLYLQMNSLRAEDTAVYYCARWRGYKDYPFDYWGQGTLVTVSS VL: DIQMTQSPSSLSASVGDRVTITCKASQNIYKYLDWYQQKPGKAPKRLIYNTNSLHTGVPSRFSGSGSGTEFTLTISSLQPEDFATYYCLQHNSGWTFGGGTKVEIKR
Output: 40.6

Source listed as patent US20220056125A1.
